Data credit: patent US11466016B2

subjectOfTest: SHP2 (Homo sapiens (Human))
Sequence (Q06124 whole entry): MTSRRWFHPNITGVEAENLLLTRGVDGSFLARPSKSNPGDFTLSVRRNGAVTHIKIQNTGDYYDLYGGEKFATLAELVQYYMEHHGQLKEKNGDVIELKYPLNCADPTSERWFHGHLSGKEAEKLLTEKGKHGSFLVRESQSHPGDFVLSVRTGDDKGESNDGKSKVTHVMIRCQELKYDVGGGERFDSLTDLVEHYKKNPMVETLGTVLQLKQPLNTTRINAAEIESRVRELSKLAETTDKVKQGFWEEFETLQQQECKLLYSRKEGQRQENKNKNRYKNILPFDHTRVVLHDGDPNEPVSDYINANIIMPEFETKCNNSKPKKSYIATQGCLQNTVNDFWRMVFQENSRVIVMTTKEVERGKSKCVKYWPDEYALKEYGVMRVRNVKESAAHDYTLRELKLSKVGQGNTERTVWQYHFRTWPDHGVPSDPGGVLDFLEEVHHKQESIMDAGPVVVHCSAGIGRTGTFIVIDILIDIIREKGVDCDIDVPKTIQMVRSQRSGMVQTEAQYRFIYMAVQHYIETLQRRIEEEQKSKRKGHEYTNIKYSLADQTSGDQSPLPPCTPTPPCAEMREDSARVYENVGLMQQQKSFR
assayMethodText: SHP2 Biochemical Assay (DiFMUP conversion, pIRS1 activating peptide)
reportedConditions: DiFMUP substrate, 0.25 μM pIRS1 peptide, 30 min pre-incubation; average where more than one data point; read-out: SHP2 (IC50)
Structures can show the parent of a compound that is named as a salt.
reportedProperty: log10 IC50 (log10 of the value in nM)

molecule | subjectOfTest | resultValue
Cc1nc2ccc(-c3n[nH]c4nc(N5C6CCC5[C@@H](F)[C@@H](N)C6)c(C)nc34)c(Cl)c2s1 (stereo in doubt) [Example 146] | SHP2 (Homo sapiens (Human)) | 0.87
CCn1cc2c(Cl)c(-c3c[nH]c4nc(N5[C@@H]6CC[C@H]5C[C@@H](N)C6)cnc34)ccc2n1 [Example 26, hydrochloride salt] | SHP2 (Homo sapiens (Human)) | 1.15
Cn1cc2c(Cl)c(-c3c[nH]c4nc(N5CCC(C)(N)CC5)cnc34)ccc2n1 [Example 5] | SHP2 (Homo sapiens (Human)) | 1.26
Cn1cc2c(Cl)c(-c3c[nH]c4nc(N5[C@@H]6CC[C@H]5C[C@@H](N)C6)c(CO)nc34)ccc2n1 [Example 34, hydrochloride salt] | SHP2 (Homo sapiens (Human)) | 1.11
COc1cc2c(Cl)c(-c3c[nH]c4nc(N5[C@@H]6CC[C@H]5C[C@@H](N)C6)cnc34)ccc2nc1C [Example 42] | SHP2 (Homo sapiens (Human)) | 1.23
CN(C)c1cnc2ccc(-c3n[nH]c4nc(N5[C@@H]6CC[C@H]5C[C@@H](N)C6)c(CO)nc34)c(Cl)c2n1 [Example 133] | SHP2 (Homo sapiens (Human)) | 0.78
Cc1nc2c(-c3ccc4nn(C)c(C#N)c4c3Cl)n[nH]c2nc1N1[C@H]2CC[C@@H]1[C@@H](F)[C@@H](N)C2 [Example 124] | SHP2 (Homo sapiens (Human)) | 0.91
CCOc1cnc2ccc(-c3n[nH]c4nc(N5[C@H]6CC[C@@H]5[C@@H](F)[C@@H](N)C6)c(C)nc34)c(Cl)c2n1 [Example 139] | SHP2 (Homo sapiens (Human)) | 1.34
Cn1nc2ccc(-c3c[nH]c4nc(N5[C@H]6CC[C@@H]5[C@@H](F)[C@@H](N)C6)c(CO)nc34)c(Cl)c2c1Cl [Example 122] | SHP2 (Homo sapiens (Human)) | 0.72
Cn1nc2ccc(-c3n[nH]c4nc(N5[C@H]6CC[C@@H]5[C@@H](F)[C@@H](N)C6)c(CO)nc34)c(F)c2c1Br [Example 105] | SHP2 (Homo sapiens (Human)) | 0.95
CCn1nc2ccc(-c3n[nH]c4nc(N5[C@H]6CC[C@@H]5[C@@H](F)[C@@H](N)C6)c(C)nc34)c(Cl)c2c1C#N [Example 127, hydrochloride salt] | SHP2 (Homo sapiens (Human)) | 1.15
COc1cnc2ccc(-c3n[nH]c4nc(N5[C@@H]6CC[C@H]5C[C@@H](N)C6)c(C)nc34)c(Cl)c2n1 [Example 135] | SHP2 (Homo sapiens (Human)) | 1.20
Cn1nc2ccc(-c3n[nH]c4nc(N5CCC(C)(N)CC5)c(CO)nc34)c(Cl)c2c1Cl [Example 110] | SHP2 (Homo sapiens (Human)) | 0.85
Cc1c(-c2n[nH]c3nc(N4[C@@H]5CC[C@H]4C[C@@H](N)C5)c(CO)nc23)ccc2nn(C)c(Cl)c12 [Example 142] | SHP2 (Homo sapiens (Human)) | 1.11
Cn1cc2c(Cl)c(-c3c[nH]c4nc(N5[C@@H]6CC[C@H]5C[C@H](N)C6)cnc34)ccc2n1 [Example 2] | SHP2 (Homo sapiens (Human)) | 0.91
Cn1cc2c(Cl)c(-c3c[nH]c4nc(N5CC[C@@H](N)[C@@H](F)C5)cnc34)ccc2n1 [Example 32, hydrochloride salt] | SHP2 (Homo sapiens (Human)) | 1.75
Cn1nc2ccc(-c3n[nH]c4nc(N5[C@H]6CC[C@@H]5[C@@H](F)[C@@H](N)C6)c(CO)nc34)c(F)c2c1Cl [Example 83] | SHP2 (Homo sapiens (Human)) | 0.93
Cc1nc2c(-c3ccc4nn(C)c(Cl)c4c3Cl)n[nH]c2nc1N1[C@H]2CC[C@@H]1[C@@H](F)[C@@H](N)C2 [Example 93] | SHP2 (Homo sapiens (Human)) | 0.56
Cn1nc2ccc(-c3n[nH]c4nc(N5[C@@H]6CC[C@H]5C[C@@H](N)C6)c(CO)nc34)c(Cl)c2c1Cl [Example 88] | SHP2 (Homo sapiens (Human)) | 0.85
Cc1nc2c(-c3ccc4nn(C)cc4c3Cl)n[nH]c2nc1N1CCC2(CC1)CNC2 [Example 94] | SHP2 (Homo sapiens (Human)) | 1.85
CN(C)C(=O)c1nc2ccc(-c3c[nH]c4nc(N5[C@@H]6CC[C@H]5C[C@@H](N)C6)cnc34)c(Cl)c2s1 [Example 59, hydrochloride salt] | SHP2 (Homo sapiens (Human)) | 1.26
Cn1nc2ccc(-c3n[nH]c4nc(N5[C@@H]6CC[C@H]5CNC6)c(CO)nc34)c(Cl)c2c1Cl [Example 86] | SHP2 (Homo sapiens (Human)) | 0.86
Cc1c(-c2n[nH]c3nc(N4[C@H]5CC[C@@H]4[C@@H](F)[C@@H](N)C5)c(CO)nc23)ccc2nn(C)c(Cl)c12 [Example 108] | SHP2 (Homo sapiens (Human)) | 0.82
COc1ccc2ccc(-c3c[nH]c4nc(N5[C@@H]6CC[C@H]5C[C@@H](N)C6)cnc34)c(Cl)c2n1 [Example 27, hydrochloride salt] | SHP2 (Homo sapiens (Human)) | 1.23
COCc1nc2ccc(-c3c[nH]c4nc(N5[C@@H]6CC[C@H]5C[C@@H](N)C6)cnc34)c(Cl)c2s1 [Example 43, hydrochloride salt] | SHP2 (Homo sapiens (Human)) | 0.76
Cc1nc2c(-c3ccc4nn(C)cc4c3Cl)[nH]nc2nc1N1[C@@H]2CC[C@H]1CC(N)C2 (some centres unmarked) [Example 48, hydrochloride salt] | SHP2 (Homo sapiens (Human)) | 1.23
